- tgt: AChE from Electrophorus electricus (Electrophorus electricus, UniProt O42275)
- Construct: purchased Sigma-Aldrich
- Sequence (O42275 24-633): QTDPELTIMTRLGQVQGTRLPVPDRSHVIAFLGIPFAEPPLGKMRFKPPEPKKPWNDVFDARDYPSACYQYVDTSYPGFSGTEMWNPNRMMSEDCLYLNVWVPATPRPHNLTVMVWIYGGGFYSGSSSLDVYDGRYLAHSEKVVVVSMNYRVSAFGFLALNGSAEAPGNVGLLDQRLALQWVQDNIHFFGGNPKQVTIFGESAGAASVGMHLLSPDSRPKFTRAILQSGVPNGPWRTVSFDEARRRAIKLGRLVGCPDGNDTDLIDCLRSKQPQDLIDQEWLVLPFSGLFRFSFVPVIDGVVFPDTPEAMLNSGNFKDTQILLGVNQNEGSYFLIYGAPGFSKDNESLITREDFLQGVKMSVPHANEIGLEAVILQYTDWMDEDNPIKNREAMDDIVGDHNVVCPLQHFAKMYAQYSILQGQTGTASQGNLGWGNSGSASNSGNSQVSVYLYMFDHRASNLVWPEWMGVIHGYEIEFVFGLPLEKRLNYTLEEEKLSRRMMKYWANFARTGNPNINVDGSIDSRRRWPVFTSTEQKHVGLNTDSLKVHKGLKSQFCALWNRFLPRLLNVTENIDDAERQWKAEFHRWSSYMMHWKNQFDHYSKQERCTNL
- procedureText: Ellman's assay, AChE inhibition
- Format: biochemical
- studyConditions: IC50 AChE, Ellman's assay
Reported pIC50 values are given for each entry in this list.
Scale note: pIC50 = -log10(concentration in M).

smilesNotation	pIC50
O=C1c2ccccc2C(=O)N1CCCCCCNCc1ccccc1	6.48

For the next question, use this compound.
Lookup: Look up and report measured pIC50 for this entry: `O=C1c2ccccc2C(=O)N1CCCCCNCc1ccccc1`
Found: 6.77

###

- tgt: BuChE from horse serum (Equus caballus)
- Construct: BuChE from horse serum (2.5 units/1 mL); purchased Sigma-Aldrich; host or cells: horse serum
- Sequence (P81908 whole entry): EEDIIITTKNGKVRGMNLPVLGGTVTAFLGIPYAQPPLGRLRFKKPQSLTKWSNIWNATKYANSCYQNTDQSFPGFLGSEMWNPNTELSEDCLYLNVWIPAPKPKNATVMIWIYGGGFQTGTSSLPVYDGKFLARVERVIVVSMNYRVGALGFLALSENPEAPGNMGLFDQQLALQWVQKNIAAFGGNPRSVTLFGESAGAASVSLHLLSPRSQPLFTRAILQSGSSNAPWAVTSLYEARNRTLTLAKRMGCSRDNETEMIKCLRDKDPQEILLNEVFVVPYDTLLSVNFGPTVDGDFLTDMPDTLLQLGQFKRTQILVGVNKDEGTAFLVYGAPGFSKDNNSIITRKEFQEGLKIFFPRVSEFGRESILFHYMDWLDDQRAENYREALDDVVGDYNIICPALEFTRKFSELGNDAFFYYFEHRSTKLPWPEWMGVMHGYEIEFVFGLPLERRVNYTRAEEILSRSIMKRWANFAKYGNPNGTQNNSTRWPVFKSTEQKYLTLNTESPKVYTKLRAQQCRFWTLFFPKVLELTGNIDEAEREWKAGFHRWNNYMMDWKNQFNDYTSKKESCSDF
- procedureText: biochemical
- studyConditions: Ellman's assay, horse serum BuChE, pH 8.0, 25 °C; n.a.: not active; read-out: BuChE IC50
In this section, each of the molecules is paired with its reported IC50.
Value expressed in µM; do not type the unit.

molecule	tgt	assayEndpoint	observedMeasurement
O=C1c2ccccc2C(=O)N1CCCCCCNC1CCN(Cc2ccccc2)CC1 [Compound 2]	BuChE from horse serum (Equus caballus)	IC50	24.5

Now look at this one.
Lookup: Hello, please tell me recorded IC50 for this one: O=C1c2ccccc2C(=O)N1CCCNC1CCN(Cc2ccccc2)CC1 [Compound 1]
Found: 22.8

Reference for the values: paper PMC3634507
